Data origin, for the record: patent US20160376353A1

Target: T1, N2 peptide (non-muscle myosin neo-epitope N2 12mer sequence)
T1 construct: also called N2 12-mer peptide
T1 peptide: LMKNMDPLNDNV
Test: SPR (BIACORE X100), antibody captured by anti-human Fc, N2 peptide in solution
pKd: −log10 of the molar value.
The binders listed here are annotated with their pKd.

binder: Chimeric 21G6, human heavy chain constant region IgG1 with Q297 mutation (antibody, V domains shown, Human IgG1 constant region with Asn 297 to Gln; also called ch21G6 N297Q) VH: QVQLQQPGAELVKPGASVKLSCKASGYTFTSYYMYWVKQRPGQGLEWIGGINPSNGGTNFNEKFKSKATLTVDKSSSTAYMQLSSLTSEDSAVYYCTRWGYDREWFAYWGQGTLVTVSA VL: DIVMTQAAPSVPVTPGESVSISCRSSKSLLHSNGNTYLYWFLQRPGQSPQVLIYRMSNLASGVPDRFSGSGSGTAFTLRISRVEAEDVGVYYCMQHLEYPFTFGSGTKLEIKR
pKd: 5.25
--
binder: H3-21G6 / L3-21G6, wild type human IgG1 (antibody, V domains shown, also called H3/L3) VH: QVQLVQSGAEVKKPGSSVKVSCKASGYTFTSYYMYWVRQAPGQGLEWIGGINPSNGGTNFNEKFKSKATITVDKSTSTAYMELSSLRSEDTAVYYCTRWGYDREWFAYWGQGTLVTVSS VL: DIVMTQTPLSLSYTPGQPASISCRSSKSLLHSNGNTYLYWFLQKPGQSPQLLIYRMSNLASGVPDRFSGSGSGTDFTLKISRVEAEDVGVYYCMQHLEYPFTFGQGTKLEIKR
pKd: 5.03
--
binder: H2-21G6 / L3-21G6, wild type human IgG1 (antibody, V domains shown, also called H2/L3) VH: QVQLVQSGAEVKKPGASVKVSCKASGYTFTSYYMYWVRQAPGQGLEWIGGINPSNGGTNFNEKFKSKATMTVDKSTSTAYMELRSLRSDDSAVYYCTRWGYDREWFAYWGQGTLVTVSS VL: DIVMTQTPLSLSYTPGQPASISCRSSKSLLHSNGNTYLYWFLQKPGQSPQLLIYRMSNLASGVPDRFSGSGSGTDFTLKISRVEAEDVGVYYCMQHLEYPFTFGQGTKLEIKR
pKd: 5.02
